The reported measurements were obtained from ChEMBL document CHEMBL1150009.

assay: Inhibitory concentration in vitro using porcine lung membrane (to identify non-peptide antagonist of the CGRP receptor); type: functional, cell membranes, Sus scrofa
readout.label: pIC50
One number for each entry, as −log10 of the molar value.

Field request: pIC50 | item: CCC1CN2CCC1CC2[C@H](O)c1cc(-c2ccc(Cl)cc2)nc2ccc(OC)cc12 (stereo partly specified)
5.22

----------
What pIC50 was measured for each of the following?
molecular target: Calcitonin gene-related peptide type 1 receptor (Homo sapiens, UniProt O60894+Q16602); test: Displacement of [125I]hCGRP human Calcitonin gene-related peptide type receptor expressed in SK-N-MC neuroblastoma cell membranes
Sequence (Q16602 whole entry, one chain of several): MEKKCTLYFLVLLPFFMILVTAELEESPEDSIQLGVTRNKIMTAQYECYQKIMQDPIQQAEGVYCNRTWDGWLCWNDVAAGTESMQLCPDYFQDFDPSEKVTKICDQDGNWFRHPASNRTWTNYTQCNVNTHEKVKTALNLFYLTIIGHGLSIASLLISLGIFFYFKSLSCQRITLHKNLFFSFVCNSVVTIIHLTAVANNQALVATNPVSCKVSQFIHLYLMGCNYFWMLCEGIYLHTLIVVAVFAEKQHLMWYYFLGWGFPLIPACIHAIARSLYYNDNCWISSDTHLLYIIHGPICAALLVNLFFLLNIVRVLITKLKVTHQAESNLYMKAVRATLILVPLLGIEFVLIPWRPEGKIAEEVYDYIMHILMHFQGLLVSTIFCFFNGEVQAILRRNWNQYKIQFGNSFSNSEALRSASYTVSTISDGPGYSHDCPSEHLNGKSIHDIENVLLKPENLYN
One number for each entry, as −log10 of the molar value.

Take a look at these entries with their results.
CCC1CN2CCC1CC2[C@H](O)c1cc(-c2ccc(Cl)cc2)nc2ccc(OC)cc12 (stereo partly drawn) : 5.23
CCC1CN2CCC1CC2[C@H](O)c1cc(-c2ccc(Cl)cc2Cl)nc2ccc(OC)cc12 (stereo partly drawn) : 4.43
CCC1CN2CCC1CC2[C@H](O)c1cc(-c2ccc(Oc3ccccc3)cc2)nc2ccc(OC)cc12 (stereo partly drawn) : 4.92
CCC1CN2CCC1CC2[C@H](O)c1cc(-c2ccc3c(c2)OCO3)nc2ccc(OC)cc12 (stereo partly drawn) : 4.13
CCC1CN2CCC1CC2[C@H](O)c1cc(-c2ccc(F)c(Cl)c2)nc2ccc(OC)cc12 (stereo partly drawn) : 4.77

// batch mode: one pIC50 value per listed entry
1. CCC1CN2CCC1CC2[C@H](O)c1cc(-c2cccc([N+](=O)[O-])c2)nc2ccc(OC)cc12 (stereo partly drawn)
2. CCC1CN2CCC1CC2[C@H](O)c1cc(-c2cccc3ccccc23)nc2ccc(OC)cc12 (stereo partly drawn)
3. CCC1CN2CCC1CC2[C@H](O)c1cc(-c2cccc(C(F)(F)F)c2)nc2ccc(OC)cc12 (stereo partly drawn)
4. CCC1CN2CCC1CC2[C@H](O)c1cc(-c2ccc(C(F)(F)F)cc2)nc2ccc(OC)cc12 (stereo partly drawn)
5. CCC1CN2CCC1CC2[C@H](O)c1cc(-c2ccccc2)nc2ccc(OC)cc12 (stereo partly drawn)

[4.39, 4.48, 5.00, 5.28, 4.02]

----------
molecular target: Calcitonin gene-related peptide type 1 receptor (Homo sapiens, UniProt O60894+Q16602); experiment: Compound was tested in vitro for its binding affinity towards recombinant human Calcitonin gene-related peptide type receptor (membranes of HEK293 cells) using [125I]hCGRP as radioligand; assay type: cell membranes
readout.label: IC50 (µM)
Give bare numbers, in µM.

Field request: IC50 | item: CCC1CN2CCC1CC2[C@H](O)c1cc(-c2ccc(Cl)cc2)nc2ccc(OC)cc12 (stereo partly specified)
5.5

----------
molecular target: Calcitonin gene-related peptide type 1 receptor (Homo sapiens, UniProt O60894+Q16602); experiment: Displacement of [125I]hCGRP human Calcitonin gene-related peptide type receptor expressed in SK-N-MC neuroblastoma cell membranes
readout.label: IC50

Take a look at these entries with their results.
CCC1CN2CCC1CC2[C@H](O)c1cc(-c2cccc(N)c2)nc2ccc(OC)cc12 (stereo partly drawn) : > 100 µM
CCC1CN2CCC1CC2[C@H](O)c1cc(-c2ccc(OC)cc2)nc2ccc(OC)cc12 (stereo partly drawn) : > 100 µM

// next item, IC50 requested
Field request: IC50 | item: CCC1CN2CCC1CC2[C@H](O)c1cc(-c2ccsc2)nc2ccc(OC)cc12 (stereo partly drawn)
> 100 µM
